- Test system: Escherichia coli TOP10;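 further: peptides expressed intracellularly from a pBAD plasmid library in pooled LB shake-flask culture, induced with 0.3% L-arabinose, DNA abundance read by NGS, three biological replicates, DESeq2 with apeglm shrinkage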
- ASSAY_OVERVIEW: shrunken log2 fold change of peptide-encoding DNA abundance (4.5 h post-induction vs induction); higher = less antimicrobial activity (less host growth inhibition)
- PROTOCOL_CONDITIONS: time post-induction: 4.5 h; library: site-saturation at positions 5, 18, 19, 20
METRIC: shrunken log2 fold change

Field request: shrunken log2 fold change | item: "RRIRWRPPRLPRPRPRPVHMPRP"
-0.0785

Field request: shrunken log2 fold change | item: "RRIRGRPPRLPRPRPRPPQHPRP"
0.789

Field request: shrunken log2 fold change | item: "RRIRGRPPRLPRPRPRPLRAPRP"
1.72

Field request: shrunken log2 fold change | item: "RRIRQRPPRLPRPRPRPQSLPRP"
-0.0818

Field request: shrunken log2 fold change | item: "RRIRKRPPRLPRPRPRPQLVPRP"
0.225

Field request: shrunken log2 fold change | item: "RRIRWRPPRLPRPRPRPELYPRP"
0.541

Field request: shrunken log2 fold change | item: "RRIRTRPPRLPRPRPRPKVHPRP"
-0.429

Field request: shrunken log2 fold change | item: "RRIRIRPPRLPRPRPRPFWNPRP"
-0.277

Field request: shrunken log2 fold change | item: "RRIRARPPRLPRPRPRPVRMPRP"
0.618

Field request: shrunken log2 fold change | item: "RRIRGRPPRLPRPRPRPMWRPRP"
0.899

Field request: shrunken log2 fold change | item: "RRIRRRPPRLPRPRPRPKLHPRP"
0.167

Field request: shrunken log2 fold change | item: "RRIRPRPPRLPRPRPRPSKGPRP"
0.0318

Field request: shrunken log2 fold change | item: "RRIRLRPPRLPRPRPRPPNPPRP"
0.423

Field request: shrunken log2 fold change | item: "RRIRSRPPRLPRPRPRPYKRPRP"
-0.618

Field request: shrunken log2 fold change | item: "RRIRGRPPRLPRPRPRPDFDPRP"
0.612
